Overview of reported IC50 across a group of compounds:
- measured_on: CDK1-NanoLuc fusion with CCNB1 in 293T or 293 cells (Homo sapiens)
- Construct: host or cells: 293T (ATCC CRL-3216) or 293 (ATCC CRL-1573)
- Sequence (P06493 whole entry, the tested form may be a part): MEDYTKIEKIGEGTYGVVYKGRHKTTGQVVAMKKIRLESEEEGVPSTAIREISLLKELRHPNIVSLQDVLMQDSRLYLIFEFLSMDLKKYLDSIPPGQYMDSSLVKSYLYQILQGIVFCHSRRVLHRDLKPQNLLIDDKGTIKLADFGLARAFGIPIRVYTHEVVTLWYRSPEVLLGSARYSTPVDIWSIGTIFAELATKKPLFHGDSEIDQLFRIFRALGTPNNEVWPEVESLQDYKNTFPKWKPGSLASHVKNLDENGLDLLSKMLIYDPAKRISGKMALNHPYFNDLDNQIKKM
- Sequence (P14635 whole entry partner, the tested form may be a part): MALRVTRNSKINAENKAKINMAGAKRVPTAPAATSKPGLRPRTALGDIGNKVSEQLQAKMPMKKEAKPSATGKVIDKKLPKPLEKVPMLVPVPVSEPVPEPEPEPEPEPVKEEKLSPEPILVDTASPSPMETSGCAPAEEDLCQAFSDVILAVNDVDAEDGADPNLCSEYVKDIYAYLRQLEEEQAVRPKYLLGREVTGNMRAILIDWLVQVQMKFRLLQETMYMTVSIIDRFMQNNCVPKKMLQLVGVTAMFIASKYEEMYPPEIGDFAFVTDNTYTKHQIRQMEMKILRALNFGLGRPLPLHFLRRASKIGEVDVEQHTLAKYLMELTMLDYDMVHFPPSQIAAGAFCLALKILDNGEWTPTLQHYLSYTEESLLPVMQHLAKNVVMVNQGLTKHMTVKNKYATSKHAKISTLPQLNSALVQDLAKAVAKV
- test_name: NanoBRET Target Engagement (TE) Intracellular Kinase Assay, CDK1/CCNB1
- Format: cell-based
- experimental_conditions: NanoBRET TE intracellular kinase assay, 2-hour incubation, read-out: NanoBRET-CDK1/B1 IC50
- Description: Inhibitory effects of compounds were measured in NanoBRET TE Intracellular Kinase Assay. 293T (ATCC; CRL-3216) or 293 (ATCC; CRL-1573) cell lines were maintained in 90% DMEM and 10% fetal bovine serum at 37° C., 5% CO2, and 95% relative humidity. […] NanoBRET signals (donor emission wavelength at 450 nm, acceptor emission wavelength at 610 nm) were measured using Envision plate reader (PerkinElmer). NanoBRET ratio was calculated by: BRET Ratio=raw signal for acceptor/raw signal for donor. […]
Report the value in nM with no unit label.

Solved cases below.
INSERT INTO assay_data (compound, attribute_measured, result_number) VALUES
  ('CC(C)NC(=O)O[C@@H]1CC[C@H](c2cc(Nc3cc(Oc4cccc(O)c4C=O)ccn3)n[nH]2)C1', 'IC50', 92.9),
  ('COc1cc(O)c(C=O)c(OCC(=O)Nc2cc([C@H]3CC[C@@H](OC(=O)N4CCC4(C)C)C3)[nH]n2)c1', 'IC50', 2.14),
  ('CC(C)NC(=O)O[C@@H]1CC[C@H](c2cc(NC(=O)COc3cc(-n4cccn4)cc(O)c3C=O)n[nH]2)C1', 'IC50', 703);

Prompt: Can you look up the measured IC50 of COc1cc(O)c(C=O)c(CCC(=O)Nc2cc([C@H]3CC[C@@H](OC(=O)NC(C)C)C3)[nH]n2)c1 [Compound 22, 2,2,2-trifluoroacetate] for me?
Completion: 100

Prompt: Ok, now CC(C)NC(=O)O[C@@H]1CC[C@H](c2cc(NC(=O)[C@@H]3Cc4ccc(O)c(C=O)c4C3)n[nH]2)C1 [Compound 26]
Completion: 21.7

Prompt: Repeat with CC(=O)Nc1cc(C(=O)Nc2cc([C@H]3CC[C@@H](OC(=O)NC(C)C)C3)[nH]n2)ccc1C=O
Completion: 176

---

- System: Phospho-Rb Ser807/811 in OVCAR3 cells
- test_name: OVCAR3 Phospho-Rb Ser807/811 HTRF assay
- Format: cell-based
- experimental_conditions: Homo sapiens, OVCAR-3; OVCAR3 cells, Phospho-Rb Ser807/811 HTRF, 1 hour incubation; read-out: pRb-OVCAR3 IC50
attribute_measured: IC50 (nM)
All answers are understood in nM, so give the number only.

These recorded examples may help you get a feel for the data.
INSERT INTO measurements (smiles_str, output_unit, result_number) VALUES
  ('CC(C)NC(=O)O[C@@H]1CC[C@H](c2cc(NC(=O)c3cnn(-c4cccc(O)c4C=O)c3)n[nH]2)C1', 'nM', 880),
  ('CC(C)NC(=O)O[C@@H]1CC[C@H](c2cc(NC(=O)CCc3ccc(O)c(C=O)c3)n[nH]2)C1', 'nM', 618),
  ('C[C@H]1CCCN1C(=O)O[C@@H]1CC[C@H](c2cc(NC(=O)COc3cccc(O)c3C=O)n[nH]2)C1', 'nM', 78.2),
  ('C[C@@H]1CCCN1C(=O)O[C@@H]1CC[C@H](c2cc(NC(=O)COc3cccc(O)c3C=O)n[nH]2)C1', 'nM', 188);

Prompt: Value wanted: IC50 (Phospho-Rb Ser807/811 in OVCAR3 cells) of entry COc1cc(O)c(C=O)c(OCC(=O)Nc2cc([C@H]3CC[C@@H](OC(=O)N4C5CCC4COC5)C3)[nH]n2)c1
Completion: 25.7
